assay-explanation: TOX21_p53_BLA_p4_viability: Viability Assessment in the Tox21 HCT-116 p53 Agonism Beta-lactamase Assay, Phase 4 (AID 2283597);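 further: hits lower the luminescence signal meaning cytotoxicity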
Records with an inconclusive call do not appear. Activity calls are given as the source filed them. How the source made its calls: active means hit-call score of the fitted dose curve at least 0.9, where 1 is the maximum; inconclusive means response in the unintended direction; inactive means score below 0.9.
quantity: outcome

{"compound": "CC(O)(CS(=O)(=O)c1ccc(F)cc1)C(=O)Nc1ccc(C#N)c(C(F)(F)F)c1 (stereo not drawn)", "recorded-result": "inactive"}
{"compound": "CC(=O)CN(CC(C)=O)N=O", "recorded-result": "inactive"}
{"compound": "CC(C)[C@H](C(=O)OC(C#N)c1cccc(Oc2ccccc2)c1)c1ccc(OC(F)F)cc1 (stereo partly drawn)", "recorded-result": "inactive"}

These measurements were taken from PubChem BioAssay (EPA / NIEHS).
